System: Wolbachia pipientis
Assay: Anti-Wolbachia Cell-Based Screen
Assay type: functional
Parameters: scale not given: in the data most compounds retested in dose-response had high values
Settings: 5 µM
The campaign covered roughly 48,000 compounds. About 13,000 (27%) showed an effect of 50% or more. Some of the results follow.
Readout label: Percent Effect (%)
Write it as a number; the unit % goes unstated.

Look over these answered cases.
[
  {
    "Molecule": "Fc1cccnc1N1CCC(NCc2cccc3cn[nH]c23)C1 (configuration not stated)",
    "Data value": 4.996
  },
  {
    "Molecule": "CC(=O)N1CCC(N[C@@H]2CO[C@H](CNC(=O)c3cccs3)[C@H]2O)CC1",
    "Data value": 1.318
  },
  {
    "Molecule": "CN(CC(=O)NC(C)(C)C)Cc1cccc2c1OCCO2",
    "Data value": -43.12
  }
]

# lookup: O=C(Cc1cn2ccccc2n1)N1CCCC(n2ccnc2)C1 (configuration not stated) on Wolbachia pipientis, Percent Effect = 115.6

# lookup: CC(=O)N1CCN([C@@H]2CCC[C@@H](NC(=O)c3cccnc3)[C@H]2O)CC1 on Wolbachia pipientis, Percent Effect = 122.9

# lookup: Cc1cc(C(=O)N2CCN(CC(O)Cn3cccn3)CC2)c(C)o1 (configuration not stated) on Wolbachia pipientis, Percent Effect = 3.42

# lookup: Cc1cnn(CC(C)NCc2csc(-c3ccco3)n2)c1 (configuration not stated) on Wolbachia pipientis, Percent Effect = 6.093

# lookup: O=C(CCc1cccc(F)c1F)N1CCCC(n2cncn2)C1 (configuration not stated) on Wolbachia pipientis, Percent Effect = 102.1

# lookup: CN(C)c1ncnc2c1CCN(c1cc(C(F)(F)F)ncn1)CC2 on Wolbachia pipientis, Percent Effect = -1.194

# lookup: CCOCC1CN(Cc2ccco2)Cc2nccn2C1.O=C(O)C(F)(F)F (configuration not stated) on Wolbachia pipientis, Percent Effect = 99.94
